Here, each record is paired with measured normalized growth data.
Experiment: chemical genetic growth profiling, strain panel (AID 1159580);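 note: tested at 20 µM; growth read once vehicle control cultures reached saturation at 30 °C; 1 = growth at the plate median or of vehicle wells; lower values mean less growth of the strain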
Settings: S. cerevisiae deletion strains, growth OD, locus YCR088W, strain abp1, active compounds read low
Screen size: about 5,500 compounds; about 2,000 (36%) were called active. About 18% were inconclusive and are not listed. The list shows a part of the results.
Write no unit; give the number alone.

The following compounds have reported results that may help.
[
  {
    "compound": "COC(=O)N/N=C\\c1c[n+]([O-])c2ccccc2[n+]1[O-]",
    "normalized growth": 0.986
  },
  {
    "compound": "COc1c(O)cc2c(c1O)[C@H]1O[C@H](CO)[C@@H](O)[C@H](O)[C@@H]1OC2=O",
    "normalized growth": 1.02
  },
  {
    "compound": "NC[C@H]1O[C@H](O[C@H]2[C@H](O)[C@@H](O[C@H]3O[C@H](CO)[C@@H](O)[C@H](N)[C@H]3O)[C@H](N)C[C@@H]2N)[C@H](N)[C@@H](O)[C@@H]1O",
    "normalized growth": 0.992
  },
  {
    "compound": "COc1ccc(-c2cc(=O)c3c(O)c(OC)c(O[C@H]4O[C@H](CO[C@@H]5O[C@@H](C)[C@H](O)[C@@H](O)[C@H]5O)[C@@H](O)[C@H](O)[C@H]4O)cc3o2)cc1",
    "normalized growth": 1.01
  },
  {
    "compound": "O=C1CC2(CCCC2)CC(=O)N1CCCCN1CCN(c2ncccn2)CC1",
    "normalized growth": 1.01
  },
  {
    "compound": "CC1(C)S[C@@H]2[C@H](NC(=O)C(C(=O)O)c3ccccc3)C(=O)N2[C@H]1C(=O)O (stereo partly specified)",
    "normalized growth": 0.996
  },
  {
    "compound": "CC(C)(C)NCC(O)COc1cccc2c1CCCC2=O (stereo unspecified)",
    "normalized growth": 0.981
  },
  {
    "compound": "COC1CC(O[C@H]2CC[C@]3(C=O)C4CC[C@]5(C)C(C6=CC(=O)OC6)CC[C@]5(O)C4CC[C@]3(O)C2)OC(C)C1O (stereo partly specified)",
    "normalized growth": 0.983
  },
  {
    "compound": "CC1=C2C(O)C(=O)OC3CC4C(C)(C)C(=O)C=C[C@]4(C)C(CC1)[C@]23C (stereo partly specified)",
    "normalized growth": 1.01
  },
  {
    "compound": "Nc1nc(/C(=C/CC(=O)O)C(=O)N[C@@H]2C(=O)N3C(C(=O)O)=CCS[C@H]23)cs1",
    "normalized growth": 1.01
  }
]

Next, consider the following compound.
Give the measured normalized growth of CC(C)C[C@@H](NC(=O)OCC1c2ccccc2-c2ccccc21)C(=O)O . 0.992

----------
Assay: chemical genetic growth profiling, strain panel (AID 1159580);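 note: tested at 20 µM; growth read once vehicle control cultures reached saturation at 30 °C; 1 = growth at the plate median or of vehicle wells; lower values mean less growth of the strain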
Details: S. cerevisiae deletion strains, growth OD, locus YER015W, strain faa2
About 2,000 (36%) of roughly 5,500 compounds were called active. About 18% were inconclusive and are not listed. Rule as the data show it: active = normalized growth mostly below about 0.91 (no sharp cut-off); inconclusive = no clear call, values can overlap the other calls; inactive = mostly above about 0.92. This is one part of the list.
The reply should be one of these categories: active, inactive

[
  {
    "molecule": "C[C@@H](CO)NC(=O)C1C=C2c3cccc4[nH]cc(c34)C[C@H]2N(C)C1 (stereo not given in full)",
    "assignedCategory": "inactive"
  },
  {
    "molecule": "COC1=CC(C)[C@@H]2C[C@H]3OC(=O)C[C@H]4C(C)=C(OC)C(=O)C([C@@]34C)[C@@]2(C)C1=O (stereo not given in full)",
    "assignedCategory": "inactive"
  },
  {
    "molecule": "CCn1nc(C(=O)O)c(=O)c2cc3c(cc21)OCO3",
    "assignedCategory": "inactive"
  }
]

Just curious, what result did CC(=O)N1CCN(c2ccc(OCC3CO[C@](Cn4ccnc4)(c4ccc(Cl)cc4Cl)O3)cc2)CC1 (stereo not given in full) get here? active

Hi, sorry to bother you, what did the test record for O=c1c(-c2ccc(O)cc2)coc2c(C3O[C@H](CO)[C@@H](O)[C@H](O)[C@H]3O)c(O)ccc12 (stereo not given in full) ? inactive
